system: EA.hy926 cells; assay: MTT cytotoxicity assay, EA.hy926; type: cell-based, human; conditions: Homo sapiens, EA.hy 926, 24 h, read-out: IC50 µM ± SD against EA.hy926, MTT, 24 h incubation
EXPERIMENTAL_ENDPOINT: IC50

MOLECULE	RESULT
O=C(NCCCCNc1c2c(nc3ccccc13)CCCC2)c1cccc(I)c1 [Compound 1f]	11.7 µM

====

Below is a list of entries, each paired with its recorded viability at 1 µM value.
test system: SH-SY5Y cells; assay: Cytoprotection against H2O2 (100 µM), MTT; conditions: Homo sapiens, 24 h, read-out: Cells viability (%) ± SD after 24 h of incubation with compound and H2O2

COMPOUND	viability at 1 µM, %
O=C(NCCCNc1c2c(nc3ccccc13)CCCC2)c1cccc(I)c1 [Compound 1e]	89.8
O=C(NCCCCNc1c2c(nc3ccccc13)CCCC2)c1ccc(I)cc1 [Compound 1i]	29.7
O=C(NCCCCNc1c2c(nc3ccccc13)CCCC2)c1ccccc1I [Compound 1c]	101
Cc1c(C)c2c(c(C)c1O)CCC(C)(C(=O)O)O2 (stereo not drawn) [Trolox, reference compound]	99.4
O=C(NCCCNc1c2c(nc3ccccc13)CCCC2)c1ccccc1I [Compound 1b]	99.2
O=C(NCCCCNc1c2c(nc3ccccc13)CCCC2)c1cccc(I)c1 [Compound 1f]	94.3

====

pIC50: −log10 of the molar value.
The next entries give measured pIC50 for hyaluronidase from bovine testes Type I-S (Bos taurus).

COMPOUND_SMILES	pIC50
O=C(NCCCCNc1c2c(nc3ccccc13)CCCC2)c1ccc(I)cc1	3.63
O=C(NCCCNc1c2c(nc3ccccc13)CCCC2)c1ccccc1I	3.63
O=C(NCCCNc1c2c(nc3ccccc13)CCCC2)c1ccc(I)cc1	3.70
O=C(NCCNc1c2c(nc3ccccc13)CCCC2)c1ccccc1I	3.63
O=C(NCCNc1c2c(nc3ccccc13)CCCC2)c1ccc(I)cc1	3.72
